- Assay notes: recombinant barcode read abundance after kanamycin selection (control-corrected) (log10(CPM+1)); higher = more efficient recombination; sequences stand for … in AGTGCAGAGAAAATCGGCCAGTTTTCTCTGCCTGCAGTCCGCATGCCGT…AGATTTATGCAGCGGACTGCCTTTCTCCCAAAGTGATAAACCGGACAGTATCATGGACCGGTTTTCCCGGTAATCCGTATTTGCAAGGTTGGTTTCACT; site = the 11-nt target;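 also: IS621 recombinase and bridge RNA in Escherichia coli cells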
Binary classification by recombinant barcode read abundance (log10), with 0.2 as an inclusive lower bound for fulfilled; all other cases are not fulfilled.

Please review the following examples before continuing.
{"Biosequence": "ACTAGGTCTTGGGTTCTAACCTGTTGCTA (site ACTAGGTCTTA)", "Label": "fulfilled"}
{"Biosequence": "AGAACAACTTGGGTTCTAACCTGTTGCCT (site AGGACAACTAG)", "Label": "fulfilled"}
{"Biosequence": "TATTTGTCTTGGGTTCTAACCTGTTGCCA (site TATTTGTCTTG)", "Label": "not fulfilled"}
{"Biosequence": "TGTGAGTCTTGGGTTCTAACCTGTTGCGT (site TGTGAGTCTAA)", "Label": "fulfilled"}
{"Biosequence": "CTAAGCTCTTGGGTTCTAACCTGTTGCTT (site CTAAGCTCTTA)", "Label": "not fulfilled"}
{"Biosequence": "TAGAACACTTGGGTTCTAACCTGTTGCTC (site TAGAACACTTA)", "Label": "not fulfilled"}
{"Biosequence": "ACAAAACCTTGGGTTCTAACCTGTTGCCT (site ACAAATCCTAG)", "Label": "not fulfilled"}
{"Biosequence": "CGAAGGACTTGGGTTCTAACCTGTTGCTA (site CGAAGGACTTA)", "Label": "fulfilled"}

Test whether the sequence CGGATTGCTTGGGTTCTAACCTGTTGCCT (site CGGATAGCTAG) records recombinant barcode read abundance (log10) of 0.2 or higher.
not fulfilled

Note, next up: TGGGGTACTTGGGTTCTAACCTGTTGCCT (site TGGGGTACTAG)
fulfilled

Note, next up: ACACACTCTTGGGTTCTAACCTGTTGCTG (site ACACACTCTCA)
fulfilled

Note, next up: GTCATGCCTTGGGTTCTAACCTGTTGCGT (site GTCATGCCTAC)
fulfilled

Note, next up: TTGGCGACTTGGGTTCTAACCTGTTGCCA (site TTGGCGACTTG)
not fulfilled

Note, next up: CGGCTCCCTTGGGTTCTAACCTGTTGCTT (site GACACAACTTG)
not fulfilled

Note, next up: AAATGGTCTTGGGTTCTAACCTGTTGCTA (site AAATGGTCTTA)
fulfilled

Note, next up: GATAACTCTTGGGTTCTAACCTGTTGCCT (site GATAACTCTAG)
fulfilled

Note, next up: TGCAATACTTGGGTTCTAACCTGTTGCAT (site TGCAATACTAT)
not fulfilled

Note, next up: AAGTTGTCTTGGGTTCTAACCTGTTGCGT (site AAGTTGTCTAC)
fulfilled

Note, next up: GGTGGGTCTTGGGTTCTAACCTGTTGCAT (site GGTGGGTCTAT)
fulfilled

Note, next up: TACGCCTCTTGGGTTCTAACCTGTTGCTA (site TACGCCTCTTA)
fulfilled

Note, next up: TAACCTACTTGGGTTCTAACCTGTTGCAT (site TAACGTACTAT)
not fulfilled
